Reference source: patent US11357779B2

Test: Noncompartmental pharmacokinetic parameters (Cmax, Tmax, AUC, Racc) in QD and BID cohorts of Form B
Format: in vivo, human
Conditions: human, plasma, oral, 300 mg, Compound III; 300 mg QD of Form B; Cohort 2; Day 29; read-out: Cmax (Mean)
Description: Analysis of plasma concentration versus time data for calculation of standard pharmacokinetic (PK) parameters following oral administration was conducted using Phoenix WinNonlin version 6.3 using actual blood sampling times. […]
measured.endpoint: Cmax (ng/mL)
Supply the numeric figure in ng/mL, leaving out any unit text.

The measured Cmax associated with O=C1NCC2(CCCCC2)n2c1cc1cnc(Nc3ccc(N4CCNCC4)cn3)nc12 reads 5.44
